Molecular target: Adenosine deaminase (Bos taurus)
Sequence (P56658 whole entry): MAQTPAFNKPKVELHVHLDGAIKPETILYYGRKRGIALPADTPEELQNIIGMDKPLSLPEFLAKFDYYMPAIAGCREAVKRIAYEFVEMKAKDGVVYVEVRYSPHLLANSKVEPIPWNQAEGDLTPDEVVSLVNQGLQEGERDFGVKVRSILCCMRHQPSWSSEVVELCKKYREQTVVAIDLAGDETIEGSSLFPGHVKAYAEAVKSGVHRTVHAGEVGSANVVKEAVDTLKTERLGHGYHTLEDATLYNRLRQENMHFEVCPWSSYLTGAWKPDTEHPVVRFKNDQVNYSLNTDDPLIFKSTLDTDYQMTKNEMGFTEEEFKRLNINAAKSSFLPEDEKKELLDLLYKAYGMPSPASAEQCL
Assay: Ability to inhibit calf intestinal adenosine deaminase (ADA); No data
pKi reference
Reminder that pKi means the negative base-10 logarithm of the concentration expressed in mol/L.

compound | pKi
CCCCCC[C@@H]([C@@H](C)O)n1cnc2c(N)ncnc21 | 8.89

Attention now turns to another entry.
Notebook: CCCCCCC(C(C)O)n1cnc2c1N=CNC2CO (configuration not stated) , pKi read as 4.92
